// reported pKd per item
TARGET: Androgen receptor [646-919] (Human, UniProt P10275)
Construct: 646-919
Sequence (P10275 whole entry): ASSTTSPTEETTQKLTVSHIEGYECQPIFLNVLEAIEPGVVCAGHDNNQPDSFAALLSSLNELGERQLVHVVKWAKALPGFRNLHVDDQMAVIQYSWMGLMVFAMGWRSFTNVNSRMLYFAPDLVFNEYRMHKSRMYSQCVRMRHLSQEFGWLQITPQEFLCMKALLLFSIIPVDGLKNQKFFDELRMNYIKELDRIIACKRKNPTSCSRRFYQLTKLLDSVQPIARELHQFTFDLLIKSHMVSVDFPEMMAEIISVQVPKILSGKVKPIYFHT
ASSAY_REMARKS: Fluorescence Polarization Assay
ASSAY_CONDITIONS: pH 6.5
pKd: −log10 of the molar value.
MEASURED_METRIC: pKd

SUBSTANCE: H-RGAAAGARRPRMKKKTRRRS-OH [Bag-1L (61-80)]
READING: 5.48

SUBSTANCE: H-HDSKGQTKLLQLLTTKSDQM-OH
READING: 5.55

SUBSTANCE: H-MAQRGGARRPRGDRERLGSR-OH [Bag-1L (1-20)]
READING: 5.70
